System: MDR1 (human)
ASSAY_TEXT: Efflux ratio of permeability from basolateral to apical over apical to basolateral side in MDCK cells expressing human MDR1
Format: ADME, cell-based, Canis lupus familiaris
EXPERIMENTAL_PARAMETERS: dog
Kindly return true (1) if reported efflux ratio is no lower than 2; return false (0) if it is lower.

Use these answered entries as a reference point.
>  <TEST_SMILES>
N#C[C@@H]1C[C@H]1c1c(F)ccc2nc(Cn3nc(C(F)(F)F)cc3Cl)cc(=O)n12

>  <CLASS>
false (0)

$$$$
>  <TEST_SMILES>
N#C[C@@H]1C[C@H]1c1cc(C(F)(F)F)cc2nc(Cn3nc(C(F)(F)F)cc3Cl)cc(=O)n12

>  <CLASS>
true (1)

$$$$
>  <TEST_SMILES>
N#C[C@@H]1C[C@H]1c1c(Cl)ccc2nc(Cn3nc(C(F)(F)F)cc3Cl)cc(=O)n12

>  <CLASS>
false (0)

$$$$
>  <TEST_SMILES>
COc1cc([C@@H]2C[C@H]2C#N)n2c(=O)cc(Cn3nc(C(F)(F)F)cc3Cl)nc2c1

>  <CLASS>
true (1)

$$$$
>  <TEST_SMILES>
Cc1cc([C@@H]2C[C@H]2C#N)n2c(=O)cc(Cn3nc(C(F)(F)F)cc3Cl)nc2c1

>  <CLASS>
true (1)

$$$$

hey, is efflux ratio for this one >= 2? COc1ccc2nc(Cn3nc(C(F)(F)F)cc3Cl)cc(=O)n2c1[C@@H]1C[C@H]1C#N
true (1)

###

ASSAY_TEXT: Half life in mouse at 0.5 mg/kg, iv
Format: ADME, organism-based
EXPERIMENTAL_PARAMETERS: in vivo
RECORDED_METRIC: half-life (h)
Use h as the unit, but write only the number.

Quick one: half-life of N#C[C@@H]1C[C@H]1c1c(Cl)ccc2nc(Cn3nc(C(F)(F)F)cc3Cl)cc(=O)n12 ?
8

###

ASSAYED_TARGET: Glutamate receptor 2 (Homo sapiens)
ASSAY_TEXT: Positive allosteric modulation of human GluA2 receptor flip isoform assessed as increase in glutamate-induced calcium flux measured at time interval of 5 mins in presence of saturating glycine by calcium dye-based fluorescence assay
Assay type: Functional, single protein
Attribute: pEC50
// field semantics: pEC50 = negative decimal log of concentration (mol/L)

>  <TEST_SMILES>
Cc1ccc2nc(Cn3nc(C(F)(F)F)cc3Cl)cc(=O)n2c1[C@@H]1C[C@H]1C#N

>  <RESULT_VALUE>
4.17

$$$$

Quick one: pEC50 of Cc1sc2nc(Cn3nc(C(F)(F)F)cc3Cl)cc(=O)n2c1-c1cncnc1 ?
5.02

Would you kindly repeat that for Cc1ccc2nc(Cn3nc(C(F)(F)F)cc3Cl)cc(=O)n2c1C1CC1 ?
5.89

Would you kindly repeat that for N#C[C@@H]1C[C@H]1c1cc(C(F)(F)F)cc2nc(Cn3nc(C(F)(F)F)cc3Cl)cc(=O)n12 ?
4.57

Would you kindly repeat that for N#C[C@@H]1C[C@H]1c1c(Cl)ccc2nc(Cn3nc(C(F)(F)F)cc3Cl)cc(=O)n12 ?
4.35

###

ASSAY_TEXT: Ratio of unbound concentration in brain to plasma in mouse at 5 mg/kg, po at 1 hr
Assay type: ADME, organism-based
EXPERIMENTAL_PARAMETERS: brain and plasma, read-out: K(p,uu,brain)
RECORDED_METRIC: Kp uu at 1 h
Reply: number alone, nothing else.

Quick one: Kp uu at 1 h of N#C[C@@H]1C[C@H]1c1c(Cl)ccc2nc(Cn3nc(C(F)(F)F)cc3Cl)cc(=O)n12 ?
0.67

###

ASSAY_TEXT: Protein binding in mouse plasma
Assay type: ADME, cell-free
EXPERIMENTAL_PARAMETERS: read-out: PPB (converted)
RECORDED_METRIC: fraction unbound
Reply: number alone, nothing else.

Quick one: fraction unbound of N#C[C@@H]1C[C@H]1c1c(Cl)ccc2nc(Cn3nc(C(F)(F)F)cc3Cl)cc(=O)n12 ?
0.076

###

ASSAYED_TARGET: Ionotropic glutamate receptor NMDA 1/2C (Homo sapiens, UniProt Q05586+Q14957)
Sequence (Q14957 whole entry, other chains not shown): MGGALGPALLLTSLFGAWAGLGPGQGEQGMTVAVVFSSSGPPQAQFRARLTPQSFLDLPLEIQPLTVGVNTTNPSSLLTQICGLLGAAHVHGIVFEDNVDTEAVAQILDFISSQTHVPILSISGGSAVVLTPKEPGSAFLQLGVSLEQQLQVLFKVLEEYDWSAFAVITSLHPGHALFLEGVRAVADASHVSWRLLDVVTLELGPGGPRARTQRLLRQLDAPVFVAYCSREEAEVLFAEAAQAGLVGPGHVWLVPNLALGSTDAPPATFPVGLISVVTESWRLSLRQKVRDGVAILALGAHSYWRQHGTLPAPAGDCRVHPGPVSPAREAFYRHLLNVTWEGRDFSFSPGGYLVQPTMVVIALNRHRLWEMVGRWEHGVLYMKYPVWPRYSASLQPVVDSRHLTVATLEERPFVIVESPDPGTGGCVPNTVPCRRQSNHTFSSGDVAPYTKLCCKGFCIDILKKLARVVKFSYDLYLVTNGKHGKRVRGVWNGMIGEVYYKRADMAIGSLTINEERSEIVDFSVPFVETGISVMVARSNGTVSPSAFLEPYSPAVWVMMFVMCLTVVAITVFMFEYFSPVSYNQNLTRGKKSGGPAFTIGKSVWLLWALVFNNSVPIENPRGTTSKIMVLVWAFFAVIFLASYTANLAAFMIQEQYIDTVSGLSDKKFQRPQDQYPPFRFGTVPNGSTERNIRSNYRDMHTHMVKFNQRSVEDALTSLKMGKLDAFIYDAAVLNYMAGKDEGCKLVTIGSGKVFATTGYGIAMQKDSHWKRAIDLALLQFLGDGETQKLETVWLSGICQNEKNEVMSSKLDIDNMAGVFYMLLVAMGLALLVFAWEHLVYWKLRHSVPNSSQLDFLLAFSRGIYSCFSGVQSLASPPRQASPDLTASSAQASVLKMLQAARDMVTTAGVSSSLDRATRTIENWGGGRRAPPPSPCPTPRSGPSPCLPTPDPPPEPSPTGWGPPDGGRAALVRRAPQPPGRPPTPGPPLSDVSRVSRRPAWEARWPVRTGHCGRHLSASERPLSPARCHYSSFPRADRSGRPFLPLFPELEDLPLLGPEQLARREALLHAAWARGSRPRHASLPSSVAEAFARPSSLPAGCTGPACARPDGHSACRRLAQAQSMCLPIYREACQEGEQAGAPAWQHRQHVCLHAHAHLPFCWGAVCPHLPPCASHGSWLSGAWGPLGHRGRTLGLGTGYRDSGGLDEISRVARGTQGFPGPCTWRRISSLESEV
ASSAY_TEXT: Positive allosteric modulation of GluN1/GluN2C receptor (unknown origin) assessed as increase in glutamate-induced calcium flux measured at time interval of 5 mins in presence of saturating glycine by calcium dye-based fluorescence assay
RECORDED_METRIC: pEC50
// field semantics: pEC50 = negative decimal log of concentration (mol/L)

Quick one: pEC50 of N#C[C@@H]1C[C@H]1c1c(Cl)ccc2nc(Cn3nc(C(F)(F)F)cc3Cl)cc(=O)n12 ?
5.33

###

ASSAYED_TARGET: Glutamate receptor 2 (Homo sapiens, UniProt P42262)
Sequence (P42262 whole entry, canonical isoform): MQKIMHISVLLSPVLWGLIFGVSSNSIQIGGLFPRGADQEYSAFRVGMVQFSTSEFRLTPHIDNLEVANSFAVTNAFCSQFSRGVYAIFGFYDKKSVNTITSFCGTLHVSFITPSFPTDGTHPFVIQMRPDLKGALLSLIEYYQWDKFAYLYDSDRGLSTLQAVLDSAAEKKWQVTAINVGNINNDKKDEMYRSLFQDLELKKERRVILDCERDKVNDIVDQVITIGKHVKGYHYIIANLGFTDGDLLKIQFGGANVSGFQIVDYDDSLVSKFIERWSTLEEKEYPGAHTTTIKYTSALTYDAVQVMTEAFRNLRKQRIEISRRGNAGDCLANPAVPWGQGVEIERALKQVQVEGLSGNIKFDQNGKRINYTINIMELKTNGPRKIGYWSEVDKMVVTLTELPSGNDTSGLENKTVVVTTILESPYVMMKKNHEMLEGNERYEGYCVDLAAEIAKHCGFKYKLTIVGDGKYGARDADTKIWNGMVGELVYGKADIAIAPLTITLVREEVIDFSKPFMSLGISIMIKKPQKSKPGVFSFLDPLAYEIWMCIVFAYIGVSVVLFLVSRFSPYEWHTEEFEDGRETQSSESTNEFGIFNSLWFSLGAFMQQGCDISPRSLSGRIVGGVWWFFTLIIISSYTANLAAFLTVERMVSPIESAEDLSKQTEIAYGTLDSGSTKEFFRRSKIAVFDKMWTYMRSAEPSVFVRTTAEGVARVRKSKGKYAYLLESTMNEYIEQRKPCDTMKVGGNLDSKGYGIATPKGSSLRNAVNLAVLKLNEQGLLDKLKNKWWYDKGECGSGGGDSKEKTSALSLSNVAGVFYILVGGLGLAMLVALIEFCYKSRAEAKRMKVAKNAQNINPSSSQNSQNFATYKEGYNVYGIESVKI
ASSAY_TEXT: Positive allosteric modulation of human GluA2 receptor flip isoform assessed as increase in glutamate-induced calcium flux at 125 uM measured at time interval of 5 mins in presence of saturating glycine by calcium dye-based fluorescence assay relative to glutamate
Type: single protein
Attribute: Emax at 125 µM
Use % as the unit, but write only the number.

>  <TEST_SMILES>
COc1ccc2nc(Cn3nc(C(F)(F)F)cc3Cl)cc(=O)n2c1[C@@H]1C[C@H]1C#N

>  <UNITS_OF_MEASURE>
%

>  <Emax at 125 µM>
28

$$$$
>  <TEST_SMILES>
COc1cc([C@@H]2C[C@H]2C#N)n2c(=O)cc(Cn3nc(C(F)(F)F)cc3Cl)nc2c1

>  <UNITS_OF_MEASURE>
%

>  <Emax at 125 µM>
51

$$$$
>  <TEST_SMILES>
Cc1sc2nc(Cn3nc(C(F)(F)F)cc3Cl)cc(=O)n2c1C1CC1

>  <UNITS_OF_MEASURE>
%

>  <Emax at 125 µM>
51

$$$$
>  <TEST_SMILES>
CCNC(=O)c1c(C)sc2nc(Cn3nc(C(F)(F)F)cc3Cl)cc(=O)n12

>  <UNITS_OF_MEASURE>
%

>  <Emax at 125 µM>
8

$$$$
>  <TEST_SMILES>
N#C[C@@H]1C[C@H]1c1c(Cl)ccc2nc(Cn3nc(C(F)(F)F)cc3Cl)cc(=O)n12

>  <UNITS_OF_MEASURE>
%

>  <Emax at 125 µM>
61

$$$$
>  <TEST_SMILES>
Cc1ccc2nc(Cn3nc(C(F)(F)F)cc3Cl)cc(=O)n2c1[C@@H]1C[C@H]1C#N

>  <UNITS_OF_MEASURE>
%

>  <Emax at 125 µM>
66

$$$$
>  <TEST_SMILES>
N#C[C@@H]1C[C@H]1c1c(F)ccc2nc(Cn3nc(C(F)(F)F)cc3Cl)cc(=O)n12

>  <UNITS_OF_MEASURE>
%

>  <Emax at 125 µM>
67

$$$$
>  <TEST_SMILES>
Cc1ccc2nc(Cn3nc(C(F)(F)F)cc3Cl)cc(=O)n2c1-c1cncnc1

>  <UNITS_OF_MEASURE>
%

>  <Emax at 125 µM>
5

$$$$

Quick one: Emax at 125 µM of N#C[C@@H]1C[C@H]1c1cc(C(F)(F)F)cc2nc(Cn3nc(C(F)(F)F)cc3Cl)cc(=O)n12 ?
27

Would you kindly repeat that for Cc1sc2nc(Cn3nc(C(F)(F)F)cc3Cl)cc(=O)n2c1[C@@H]1C[C@H]1C#N ?
91

Would you kindly repeat that for Cc1cc([C@@H]2C[C@H]2C#N)n2c(=O)cc(Cn3nc(C(F)(F)F)cc3Cl)nc2c1 ?
86

Would you kindly repeat that for Cc1sc2nc(Cn3nc(C(F)(F)F)cc3Cl)cc(=O)n2c1-c1cncnc1 ?
28

###

ASSAY_TEXT: Kinetic solubility of the compound
Assay type: physicochemical
EXPERIMENTAL_PARAMETERS: read-out: Kinetic_solubility
RECORDED_METRIC: solubility kinetic (µM)
Use µM as the unit, but write only the number.

Quick one: solubility kinetic of N#C[C@@H]1C[C@H]1c1c(Cl)ccc2nc(Cn3nc(C(F)(F)F)cc3Cl)cc(=O)n12 ?
43.5

###

ASSAY_TEXT: Volume of distribution at steady state in mouse at 0.5 mg/kg, iv
Type: ADME, organism-based
EXPERIMENTAL_PARAMETERS: in vivo, read-out: Vdss
RECORDED_METRIC: Vd (L/kg)
Use L/kg as the unit, but write only the number.

Quick one: Vd of N#C[C@@H]1C[C@H]1c1c(Cl)ccc2nc(Cn3nc(C(F)(F)F)cc3Cl)cc(=O)n12 ?
7

###

ASSAY_TEXT: Protein binding in human plasma
Type: ADME, cell-free
EXPERIMENTAL_PARAMETERS: read-out: PPB (converted)
RECORDED_METRIC: fraction unbound
Reply: number alone, nothing else.

Quick one: fraction unbound of N#C[C@@H]1C[C@H]1c1c(Cl)ccc2nc(Cn3nc(C(F)(F)F)cc3Cl)cc(=O)n12 ?
0.056

These measurements were taken from ChEMBL document CHEMBL3870360.
